- study system: hBGT1 E52A (Homo sapiens, UniProt P48065, E52A)
- procedure summary: cell-based
- study conditions: pIC50 ± S.E.M. BGT1 E52A, 30 nM [3H]GABA, tsA201 cells, transient expression
Friendly reminder: IC50 below 70 µM is fulfilled, at or above is not fulfilled.

Query string: Consider `NC1=NC=C(C(=O)O)CN1.O=C(O)C(F)(F)F` . Does its IC50 lie strictly below 70 µM?
Result string: not fulfilled

Query string: Input C[C@@H]1N=C(N)NC[C@@H]1C(=O)O (single isomer, unassigned) [l-15a] ; condition: IC50 strictly below 70 µM. Does it hold?
Result string: fulfilled

Query string: Hi there! Is IC50 for NC1=NCC(C(=O)O)CC1 (centres unmarked) [compound 2, reference compound] below 70 µM, do you know?
Result string: fulfilled

Query string: Input CCN1CC(C(=O)O)CN=C1N.Cl (centres unmarked) ; condition: IC50 strictly below 70 µM. Does it hold?
Result string: not fulfilled

Query string: Here's an entry: Cl.NC1=NCC(C(=O)O)CN1Cc1ccccc1 (centres unmarked) . Is its IC50 below 70 µM?
Result string: not fulfilled

* * *

- study system: hBGT1 (Homo sapiens)
- Construct: expressed in transfected cells
- Sequence (P48065 1-614): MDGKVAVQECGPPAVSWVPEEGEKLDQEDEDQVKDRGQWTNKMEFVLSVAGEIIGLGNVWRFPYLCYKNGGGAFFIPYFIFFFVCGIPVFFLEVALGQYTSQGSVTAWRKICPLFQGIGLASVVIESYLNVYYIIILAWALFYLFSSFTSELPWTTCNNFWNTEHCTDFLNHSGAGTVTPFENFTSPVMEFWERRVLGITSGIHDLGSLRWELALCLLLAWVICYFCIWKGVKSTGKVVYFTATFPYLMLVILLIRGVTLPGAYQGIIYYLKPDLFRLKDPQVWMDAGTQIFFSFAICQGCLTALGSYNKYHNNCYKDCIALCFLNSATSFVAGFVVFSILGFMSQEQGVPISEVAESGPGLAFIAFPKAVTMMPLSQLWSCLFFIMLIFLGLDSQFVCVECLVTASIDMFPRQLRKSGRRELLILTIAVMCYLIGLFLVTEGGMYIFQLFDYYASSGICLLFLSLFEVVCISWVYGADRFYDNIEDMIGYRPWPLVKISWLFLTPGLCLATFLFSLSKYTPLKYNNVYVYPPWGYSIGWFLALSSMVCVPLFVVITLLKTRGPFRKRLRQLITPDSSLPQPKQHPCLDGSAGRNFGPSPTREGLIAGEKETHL
- Assay type: cell-based
- study conditions: 30 nM [3H]GABA, 3 min, CHO Flp-In cells stably expressing hBGT1; read-out: IC50 hBGT1
pIC50: −log10 of the molar value.
Please go through the items and note down their pIC50.

Value of measured pIC50 for the entry C[C@@H]1N=C(N)NC[C@@H]1C(=O)O (single isomer, unassigned) [l-15a] : > 4.00

Memo: NC1=NCC(C(=O)O)CN1CCCC(c1ccccc1)c1ccccc1 (stereo not shown) , reported pIC50: < 3.00

Form field pIC50, entry NC1=N[C@@H](CCc2ccc(-c3ccccc3)cc2)[C@@H](C(=O)O)CN1 (relative stereo) : < 3.00

Consider C[C@@H]1N=C(N)NC[C@@H]1C(=O)O (single isomer, unassigned) [l-15b] . Its measured pIC50 is 3.35

Lab book: pIC50 of O=C(O)C1CN=C(NCCc2ccccc2)NC1 (stereo not shown) noted as < 3.00

The compound identified as C[C@H]1N=C(N)NC[C@@H]1C(=O)O (single isomer, unassigned) [u-15a] registered its pIC50 at 3.53

`NC1=NC=C(C(=O)O)CN1.O=C(O)C(F)(F)F` yielded pIC50 of 4.32

The compound identified as NC1=NC(CCc2ccccc2)C(C(=O)O)CN1 (stereo not shown) registered its pIC50 at < 3.00

The compound NC1=NCC(C(=O)O)CN1CCC(c1ccccc1)c1ccccc1 (stereo not shown) showed pIC50 equal to < 3.00

Lab note: measured pIC50 of NC1=NCC(C(=O)O)CC1 (stereo not shown) [compound 2, reference compound] was > 4.00

pIC50 reading for C[C@H]1N=C(N)NC[C@@H]1C(=O)O (single isomer, unassigned) [u-15b] : 4.07

Record NC1=NCC(C(=O)O)CN1Cc1ccc(-c2ccccc2)cc1 (stereo not shown) , field pIC50: 4.30

// CCCC1N=C(N)NCC1C(=O)O (stereo not shown) : pIC50 value = < 3.00

Reported pIC50 of `CC(C)C1=C(C(=O)O)CNC(N)=N1` : < 3.00

// pIC50 value for CC(C)C1N=C(N)NCC1C(=O)O (stereo not shown) : < 3.00

Input `CC1=C(C(=O)O)CNC(N)=N1` . Output pIC50: < 3.00

response.value for CCN1CC(C(=O)O)CN=C1N.Cl (stereo not shown) (field: pIC50) = 4.07

The recorded pIC50 for `CCCC1=C(C(=O)O)CNC(N)=N1` is < 3.00

Quick note, pIC50 for Cl.NC1=NCC(C(=O)O)CN1Cc1ccccc1 (stereo not shown) landed at 3.79
